Origin of values: ChEMBL document CHEMBL1151935

Test: in vitro
Settings: PAMPA, pH 7.4
Catalogue of Papp readings, one per entry.

Some molecules with known Papp results, for comparison:
{"Molecule": "CCCCCCOc1cc(Cl)c(C(=O)CCN(C)C)c(Cl)c1", "Assay readout": "Papp", "Result": "700 ×10⁻⁶ cm/s"}
{"Molecule": "CCCCCCS(=O)(=O)c1cc(Cl)c(C(=O)CCN2CCNC(=O)C2)cc1Cl", "Assay readout": "Papp", "Result": "540 ×10⁻⁶ cm/s"}
{"Molecule": "CCCCCCS(=O)(=O)c1ccc(C(=O)CCN2CCN(C(C)=O)CC2)c(Cl)c1Cl", "Assay readout": "Papp", "Result": "770 ×10⁻⁶ cm/s"}
{"Molecule": "CCCCCCS(=O)(=O)c1cc(Cl)c(C(=O)CCN2CCNC(=O)C2)c(Cl)c1", "Assay readout": "Papp", "Result": "430 ×10⁻⁶ cm/s"}
{"Molecule": "CCCCCCS(=O)(=O)c1ccc(C(=O)CCN2CC2C)c(Cl)c1 (stereo not drawn)", "Assay readout": "Papp", "Result": "160 ×10⁻⁶ cm/s"}
{"Molecule": "CCCCCCS(=O)(=O)c1cc(C)c(C(=O)CCN2CCN(C(C)=O)CC2)c(C)c1", "Assay readout": "Papp", "Result": "470 ×10⁻⁶ cm/s"}
{"Molecule": "CCCCCCOc1ccc(C(=O)CCN(C)C)cc1C(C)(C)C", "Assay readout": "Papp", "Result": "190 ×10⁻⁶ cm/s"}
{"Molecule": "CCCCCCS(=O)(=O)c1ccc(C(=O)CCN(C)C)c(Cl)c1Cl", "Assay readout": "Papp", "Result": "220 ×10⁻⁶ cm/s"}

Q. So what's the measured Papp for this one? "CCCCCCOc1ccc(C(=O)CCNc2cccc(Cl)c2)cc1"
A. 2 ×10⁻⁶ cm/s

Q. Report Papp for "CCCCCCOc1ccc(C(=O)CCN(C)C)cc1I" please.
A. 540 ×10⁻⁶ cm/s

Q. # get_value(readout='Papp', item= "CCCCCCOc1cc(Cl)c(C(=O)CCN2CCOCC2)c(Cl)c1" )
A. > 1 ×10⁻⁶ cm/s

Q. Fill in: Papp of "CCCCCCSc1ccc(C(=O)CCN(C)C)c(Cl)c1Cl" is ___
A. 140 ×10⁻⁶ cm/s

Q. Fill blank: measured Papp of the molecule "CCCCCCS(=O)(=O)c1cc(Cl)c(C(=O)CCN2CCOCC2)c(Cl)c1" is ____.
A. 470 ×10⁻⁶ cm/s

Q. Item under review: "CCCCCCSc1cc(Cl)c(C(=O)CCN2CCN(S(=O)(=O)CC)CC2)cc1Cl" . Reported Papp?
A. 20 ×10⁻⁶ cm/s

---

Assay: in vitro
Conditions: PAMPA, pH 7.4
Classification field: label 1 = Papp at or over 800 ×10⁻⁶ cm/s; label 0 = Papp under 800 ×10⁻⁶ cm/s.

{"Compound": "CCCCCCOc1cc(C)c(C(=O)CCN2CC2C)c(C)c1 (stereo not drawn)", "Label class": "label 1"}
{"Compound": "CCCCCCSc1cc(Cl)c(C(=O)CCN2CCN(S(=O)(=O)CC)CC2)c(Cl)c1", "Label class": "label 0"}
{"Compound": "CCCCCCSc1cc(Cl)c(C(=O)CCN2CC2C)cc1Cl (stereo not drawn)", "Label class": "label 0"}
{"Compound": "CCCCCCOc1ccc(C(=O)C(CN(C)C)c2ccccc2)cc1 (stereo not drawn)", "Label class": "label 1"}
{"Compound": "CCCCCCOc1ccc2c(c1)CC(CN(C)C)C2=O (stereo not drawn)", "Label class": "label 0"}
{"Compound": "CCCCCCS(=O)(=O)c1ccc(C(=O)CCN2CCNC(=O)C2)c(Cl)c1", "Label class": "label 0"}
{"Compound": "CCCCCCOc1ccc(C(=O)CCN(C)C)cc1F", "Label class": "label 0"}
{"Compound": "CCCCCCSc1ccc(C(=O)CCN2CCOCC2)c(Cl)c1Cl", "Label class": "label 0"}

Q. Would you say "CCCCCCOc1ccc(C(=O)CCN(C)C)cc1Br" shows Papp at minimum 800 ×10⁻⁶ cm/s?
A. label 0

Q. Please tell me: is the compound "CCCCCCS(=O)(=O)c1cc(Cl)c(C(=O)CCN2CCOCC2)cc1Cl" at or over 800 ×10⁻⁶ cm/s in terms of Papp?
A. label 0

Q. # check: Papp of "CCCCCCOc1ccc(C(=O)CCN(C)C)c(S(C)(=O)=O)c1" is greater than or equal to 800 ×10⁻⁶ cm/s
A. label 1

Q. Hi, just wondering whether "CCCCCCOc1ccc(C(=O)CCN(C)C)c(C)c1" shows Papp of 800 ×10⁻⁶ cm/s or higher.
A. label 0

Q. Papp >= 800 ×10⁻⁶ cm/s for "CCCCCCS(=O)(=O)c1cc(Cl)c(C(=O)CCN2CCN(S(=O)(=O)CC)CC2)cc1Cl" ?
A. label 0

Q. Threshold query (Papp >= 800 ×10⁻⁶ cm/s) on CCCCCCS(=O)(=O)c1cc(Cl)c(C(=O)CCN2CC2C)c(Cl)c1 (stereo not drawn)
A. label 1

Q. Decide: is the reported value of Papp for "CCCCCCSc1cc(C)c(C(=O)CCN2CCN(S(=O)(=O)CC)CC2)c(C)c1" equal to or greater than 800 ×10⁻⁶ cm/s?
A. label 0

Q. Record "CCCCCCS(=O)(=O)c1ccc(C(=O)CCN2CCN(S(=O)(=O)CC)CC2)c(Cl)c1" ; criterion: Papp no lower than 800 ×10⁻⁶ cm/s. Met?
A. label 0

Q. Hello, I need to know if "CCCCCCSc1ccc(C(=O)CCN2CCN(S(=O)(=O)CC)CC2)c(Cl)c1" has measured Papp not below 800 ×10⁻⁶ cm/s. Thanks!
A. label 0

Q. Assess whether reported Papp for "CCCCCCOc1ccc(C(=O)CCN(C)C)cc1S(C)(=O)=O" sits at 800 ×10⁻⁶ cm/s or higher.
A. label 0

Q. API: above_or_equal(metric=Papp, cutoff=800 ×10⁻⁶ cm/s) for item "CCCCCCS(=O)(=O)c1cc(C)c(C(=O)CCN2CCNC(=O)C2)c(C)c1"
A. label 0

Q. Is Papp for "CCCCCCS(=O)(=O)c1ccc(C(=O)CCN2CCN(S(=O)(=O)CC)CC2)c(Cl)c1Cl" at or above 800 ×10⁻⁶ cm/s?
A. label 0
